TEST_TARGET: human PI3K isoform delta (p110 delta) (Homo sapiens, UniProt O00329)
Sequence (O00329 whole entry, canonical isoform): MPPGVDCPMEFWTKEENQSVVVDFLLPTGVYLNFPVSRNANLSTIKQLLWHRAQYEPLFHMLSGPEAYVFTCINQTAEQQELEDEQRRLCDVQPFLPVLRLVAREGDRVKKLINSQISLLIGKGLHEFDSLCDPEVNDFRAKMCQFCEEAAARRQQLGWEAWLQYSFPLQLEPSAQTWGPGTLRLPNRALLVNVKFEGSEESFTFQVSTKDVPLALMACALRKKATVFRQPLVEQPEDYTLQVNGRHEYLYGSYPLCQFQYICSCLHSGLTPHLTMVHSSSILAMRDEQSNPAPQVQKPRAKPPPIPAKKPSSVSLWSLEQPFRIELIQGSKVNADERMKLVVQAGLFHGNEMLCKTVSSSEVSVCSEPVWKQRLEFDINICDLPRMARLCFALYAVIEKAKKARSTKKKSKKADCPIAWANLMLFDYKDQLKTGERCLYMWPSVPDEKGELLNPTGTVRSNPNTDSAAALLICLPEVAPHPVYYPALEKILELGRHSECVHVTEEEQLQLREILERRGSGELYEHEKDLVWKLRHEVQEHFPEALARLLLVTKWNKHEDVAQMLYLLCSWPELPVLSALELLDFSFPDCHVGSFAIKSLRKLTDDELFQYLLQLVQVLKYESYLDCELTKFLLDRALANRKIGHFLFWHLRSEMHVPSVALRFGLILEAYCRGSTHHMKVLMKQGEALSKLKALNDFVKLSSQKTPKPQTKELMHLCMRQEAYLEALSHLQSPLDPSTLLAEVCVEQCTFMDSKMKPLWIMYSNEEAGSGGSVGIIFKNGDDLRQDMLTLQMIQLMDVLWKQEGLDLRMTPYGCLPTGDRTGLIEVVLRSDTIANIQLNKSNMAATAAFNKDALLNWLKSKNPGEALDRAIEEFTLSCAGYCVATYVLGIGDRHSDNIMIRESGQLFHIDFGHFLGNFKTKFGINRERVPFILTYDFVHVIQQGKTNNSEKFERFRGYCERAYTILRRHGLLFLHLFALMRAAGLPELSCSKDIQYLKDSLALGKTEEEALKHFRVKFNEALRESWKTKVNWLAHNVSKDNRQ
Sequence (P27986 whole entry partner, canonical isoform): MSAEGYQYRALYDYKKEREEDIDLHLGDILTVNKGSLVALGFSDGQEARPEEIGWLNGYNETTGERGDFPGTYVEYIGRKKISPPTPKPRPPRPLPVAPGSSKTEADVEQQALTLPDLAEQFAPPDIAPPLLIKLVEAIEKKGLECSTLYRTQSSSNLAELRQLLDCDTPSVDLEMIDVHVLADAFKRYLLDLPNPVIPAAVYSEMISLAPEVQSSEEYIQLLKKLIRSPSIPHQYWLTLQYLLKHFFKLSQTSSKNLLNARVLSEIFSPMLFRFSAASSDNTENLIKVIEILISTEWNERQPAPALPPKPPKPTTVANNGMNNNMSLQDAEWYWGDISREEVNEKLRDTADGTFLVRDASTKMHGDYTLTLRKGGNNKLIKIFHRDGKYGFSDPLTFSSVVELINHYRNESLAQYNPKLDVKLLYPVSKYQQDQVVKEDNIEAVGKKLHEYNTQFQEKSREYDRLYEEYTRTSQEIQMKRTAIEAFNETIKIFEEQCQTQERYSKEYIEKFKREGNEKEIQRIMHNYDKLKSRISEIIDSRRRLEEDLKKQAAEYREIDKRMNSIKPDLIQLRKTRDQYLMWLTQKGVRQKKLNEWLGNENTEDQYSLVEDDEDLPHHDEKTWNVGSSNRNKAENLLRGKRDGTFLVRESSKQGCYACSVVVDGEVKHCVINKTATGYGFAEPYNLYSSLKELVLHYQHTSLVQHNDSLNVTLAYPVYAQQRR
MEASUREMENT_PROTOCOL: p110 isoform selectivity scintillation proximity assay (SPA), delta isoform
Format: biochemical
RUN_PARAMETERS: fold potency over delta relative to alpha, calculated from IC50 values (SPA)
MEASURED_PROPERTY: alpha/delta

* O=C(NCc1cc2nc(-c3cccc4[nH]ncc34)nc(N3CCOCC3)c2s1)N1CCOCC1 | <10
* Cc1c(-c2cccc(S(C)(=O)=O)c2)sc2c(N3CCOCC3)nc(-c3cnc4[nH]ccc4c3)nc12 | >10
* NCC(=O)Nc1cccc(-c2cc3nc(-c4cccc5[nH]ncc45)nc(N4CCOCC4)c3s2)c1 | <10
* O=S(=O)(Nc1cccc(O)c1)c1cc2nc(-c3cccc4[nH]ncc34)nc(N3CCOCC3)c2s1 | <10
* CN(Cc1cc2c(N3CCOCC3)nc(-c3cnc4[nH]ccc4c3)nc2s1)S(C)(=O)=O | >10
* c1cc2cc(-c3nc(N4CCOCC4)c4sc(-c5ccc(N6CCOCC6)nc5)cc4n3)cnc2[nH]1 | >10
* O=C(NCCN1CCCCC1)c1cc2nc(-c3cccc4[nH]ncc34)nc(N3CCOCC3)c2s1 | <10

====

TEST_TARGET: human PI3K isoform beta (p110 beta) (Homo sapiens)
MEASUREMENT_PROTOCOL: p110 isoform selectivity scintillation proximity assay (SPA), beta isoform
Format: biochemical
RUN_PARAMETERS: fold potency over beta relative to alpha, calculated from IC50 values (SPA)
MEASURED_PROPERTY: alpha/beta

* CCNC(=O)c1cc2nc(-c3cccc4[nH]ncc34)nc(N3CCOCC3)c2s1 [Compound 170] | <10
* CN(C)Cc1cc2nc(-c3cccc4[nH]ncc34)nc(N3CCOCC3)c2s1 [Compound 304] | 10
* CS(=O)(=O)c1cccc(-c2cc3nc(-c4cccc5[nH]ncc45)nc(N4CCOCC4)c3s2)c1 [Compound 265] | >10
* CNC(=O)c1cccc(-c2cc3nc(-c4cccc5[nH]ncc45)nc(N4CCOCC4)c3s2)c1 [Compound 101] | >10
* CC(=O)Nc1cccc(-c2cc3nc(-c4cccc5[nH]ncc45)nc(N4CCOCC4)c3s2)c1 [Compound 238] | >10
* COC/C=C/c1cc2nc(-c3cccc4[nH]ncc34)nc(N3CCOCC3)c2s1 [Compound 334] | >10
* O=S(=O)(NCCN1CCCCC1)c1cc2nc(-c3cccc4[nH]ncc34)nc(N3CCOCC3)c2s1 [Compound 218] | >10
* OCCNc1cc2nc(-c3cccc4[nH]ncc34)nc(N3CCOCC3)c2s1 [Compound 226] | <10

====

TEST_TARGET: human PI3K isoform beta (p110 beta) (Homo sapiens, UniProt P42338)
Sequence (P42338 whole entry, canonical isoform): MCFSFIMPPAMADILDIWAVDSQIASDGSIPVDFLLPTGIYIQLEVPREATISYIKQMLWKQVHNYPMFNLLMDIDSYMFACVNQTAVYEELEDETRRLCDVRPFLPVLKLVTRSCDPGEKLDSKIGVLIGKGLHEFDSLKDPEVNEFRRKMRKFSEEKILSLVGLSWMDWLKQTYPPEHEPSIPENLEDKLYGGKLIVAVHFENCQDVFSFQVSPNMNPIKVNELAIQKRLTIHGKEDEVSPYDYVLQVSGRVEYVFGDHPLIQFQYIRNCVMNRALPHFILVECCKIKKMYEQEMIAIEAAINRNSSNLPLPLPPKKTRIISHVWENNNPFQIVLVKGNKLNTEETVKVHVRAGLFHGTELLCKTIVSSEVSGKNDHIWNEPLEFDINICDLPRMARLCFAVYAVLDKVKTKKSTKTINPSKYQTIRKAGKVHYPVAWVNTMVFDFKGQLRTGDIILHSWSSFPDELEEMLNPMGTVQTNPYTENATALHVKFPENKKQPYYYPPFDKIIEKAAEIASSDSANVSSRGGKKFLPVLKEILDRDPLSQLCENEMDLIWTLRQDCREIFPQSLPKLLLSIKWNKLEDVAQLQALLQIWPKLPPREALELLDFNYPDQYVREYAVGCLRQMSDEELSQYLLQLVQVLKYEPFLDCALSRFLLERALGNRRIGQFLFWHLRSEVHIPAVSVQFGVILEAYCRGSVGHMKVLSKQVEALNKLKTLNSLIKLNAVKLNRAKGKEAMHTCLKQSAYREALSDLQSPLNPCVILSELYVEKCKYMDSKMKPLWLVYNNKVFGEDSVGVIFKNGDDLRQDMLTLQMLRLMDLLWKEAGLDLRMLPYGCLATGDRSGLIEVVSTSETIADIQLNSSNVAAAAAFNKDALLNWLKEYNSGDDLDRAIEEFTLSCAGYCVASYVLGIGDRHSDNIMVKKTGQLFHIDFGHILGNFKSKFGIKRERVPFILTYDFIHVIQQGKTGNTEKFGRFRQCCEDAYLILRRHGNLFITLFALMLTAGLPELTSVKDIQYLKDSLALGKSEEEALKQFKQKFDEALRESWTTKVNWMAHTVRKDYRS
Sequence (P27986 whole entry partner, canonical isoform): as the sequence (P27986 whole entry partner, canonical isoform) above
MEASUREMENT_PROTOCOL: p110 isoform selectivity scintillation proximity assay (SPA), beta isoform
Format: biochemical
RUN_PARAMETERS: fold potency over beta relative to alpha, calculated from IC50 values (SPA)
Protocol: Binding of Formula Ia and Ib compounds from Tables 1a and 1b to purified preparations of p110 isoforms alpha, beta, delta, and gamma was measured by a Scintillation Proximity Assay (SPA) to determine binding activity (IC50 μMol) and selectivity of binding of beta, delta, and gamma isoforms relative to alpha (Example 365). These values are expressed in Table 2. […]
MEASURED_PROPERTY: alpha/beta

* CN(Cc1cc2c(N3CCOCC3)nc(-c3cnc4[nH]ccc4c3)nc2s1)S(C)(=O)=O | >10
* O=C(NCc1cc2nc(-c3cccc4[nH]ncc34)nc(N3CCOCC3)c2s1)N1CCOCC1 | <10
* COc1ccc(NCc2cc3nc(-c4cccc5[nH]ncc45)nc(N4CCOCC4)c3s2)cn1 | <10
* NCC(=O)Nc1cccc(-c2cc3nc(-c4cccc5[nH]ncc45)nc(N4CCOCC4)c3s2)c1 | >10
* O=S(=O)(Nc1cccc(O)c1)c1cc2nc(-c3cccc4[nH]ncc34)nc(N3CCOCC3)c2s1 | >10
* C[C@H](O)CNC(=O)c1cccc(-c2cc3nc(-c4cccc5[nH]ncc45)nc(N4CCOCC4)c3s2)c1 | >10

====

Recorded alpha/delta for the following molecules
TEST_TARGET: human PI3K isoform delta (p110 delta) (Homo sapiens, UniProt O00329)
MEASUREMENT_PROTOCOL: p110 isoform selectivity scintillation proximity assay (SPA), delta isoform
Type: biochemical
RUN_PARAMETERS: fold potency over delta relative to alpha, calculated from IC50 values (SPA)
MEASURED_PROPERTY: alpha/delta

• Cc1c(-c2cccc(S(C)(=O)=O)c2)sc2c(N3CCOCC3)nc(-c3cccc4[nH]ncc34)nc12 [Compound 360] = >10
• OC1(c2cc3nc(-c4cccc5[nH]ncc45)nc(N4CCOCC4)c3s2)CCC1 [Compound 133] = <10
• CC(C)(O)c1cc2nc(-c3cnc4[nH]ccc4c3)nc(N3CCOCC3)c2s1 [Compound 422] = <10
• c1cc(-c2nc(N3CCOCC3)c3sc(-c4cn[nH]c4)cc3n2)c2cn[nH]c2c1 [Compound 203] = <10

====

TEST_TARGET: human PI3K isoform delta (p110 delta) (Homo sapiens)
MEASUREMENT_PROTOCOL: p110 isoform selectivity scintillation proximity assay (SPA), delta isoform
Assay type: biochemical
RUN_PARAMETERS: fold potency over delta relative to alpha, calculated from IC50 values (SPA)
MEASURED_PROPERTY: alpha/delta

* c1ccc(-c2cc3nc(-c4cccc5[nH]ncc45)nc(N4CCOCC4)c3o2)cc1 | <10
* c1cc(-c2nc(N3CCOCC3)c3sc(Cn4ccnc4)cc3n2)c2cn[nH]c2c1 | <10
* CCNC(=O)c1cc2nc(-c3cccc4[nH]ncc34)nc(N3CCOCC3)c2s1 | <10
* CNC(=O)c1cccc(-c2cc3nc(-c4cccc5[nH]ncc45)nc(N4CCOCC4)c3s2)c1 | <10
* CS(=O)(=O)N1CCC(C(O)c2cc3nc(-c4cccc5[nH]ncc45)nc(N4CCOCC4)c3s2)CC1 (centres unmarked) | <10
* CN(C)C(=O)c1cc2nc(-c3cccc4[nH]ncc34)nc(N3CCOCC3)c2s1 | <10
* CN(C)Cc1cc2nc(-c3cccc4[nH]ncc34)nc(N3CCOCC3)c2s1 | <10
* CS(=O)(=O)c1cccc(-c2cc3nc(-c4cccc5[nH]ncc45)nc(N4CCOCC4)c3s2)c1 | <10
